system-tested: B-16 mouse melanoma cells (containing MC1-R) (Mus musculus, UniProt Q01727)
Construct: B-16 mouse melanoma cells (containing MC1-R); endogenous in cells; host or cells: B-16 mouse melanoma cells
Sequence (Q01727 whole entry): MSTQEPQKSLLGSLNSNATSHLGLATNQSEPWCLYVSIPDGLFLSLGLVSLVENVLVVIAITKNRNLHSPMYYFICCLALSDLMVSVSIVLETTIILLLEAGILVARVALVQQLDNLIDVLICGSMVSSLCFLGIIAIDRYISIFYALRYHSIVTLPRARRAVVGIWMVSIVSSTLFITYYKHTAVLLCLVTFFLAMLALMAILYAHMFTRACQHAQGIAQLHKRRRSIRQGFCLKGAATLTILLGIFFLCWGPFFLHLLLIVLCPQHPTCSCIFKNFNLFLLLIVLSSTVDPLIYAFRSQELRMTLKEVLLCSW
test-method-notes: Competitive inhibition binding assay, 125I-NDP-α-MSH, MC1-R
Lab note: class by inhibition at 1 µM, see bucket 1 = under 50%, bucket 2 = from 50% up to 80%, bucket 3 = 80% and over

Answered cases to consult:
| molecule | label-value |
| --- | --- |
| [2H]N[C@@H](Cc1ccccc1)C(=O)N1C2CC[C@H](COc3ccccc3)N2C(=O)[C@@H]1CCCCN (stereo partly drawn) | bucket 1 |
| CCCCCCC(=O)NC(COCc1ccccc1)C(=O)NC(Cc1ccc(Cl)cc1)C(=O)N1C(CCCCN)C(=O)N2C(COc3ccc4ccccc4c3)CCC21 (stereo not drawn) | bucket 3 |

Query: Assign a bin to N=C(N)NCCCC1C(=O)N2C(COc3ccc4ccccc4c3)CCC2N1C(=O)C(Cc1ccccc1Cl)NC(=O)C(N)COCc1ccccc1 (stereo not drawn)
Result: bucket 2

Query: Next record, please: N=C(N)NCCCC1C(=O)N2C(COc3ccc4ccccc4c3)CCC2N1C(=O)C(N)Cc1ccc(Cl)cc1Cl (stereo not drawn)
Result: bucket 2

Query: Next record, please: NCCCCC1C(=O)N2C(COc3ccc4ccccc4c3)CCC2N1C(=O)C(Cc1ccc(Cl)cc1)NC(=O)C1Cc2ccccc2CN1 (stereo not drawn)
Result: bucket 3

Query: Next record, please: N=C(N)NCCCC1C(=O)N2C(Cc3ccc4ccccc4c3)CCC2N1C(=O)C(N)Cc1ccc(Cl)cc1Cl (stereo not drawn)
Result: bucket 2

Query: Next record, please: N=C(N)NCCCC1C(=O)N2C(COc3ccc4ccccc4c3)CCC2N1C(=O)C(Cc1ccccc1Cl)NC(=O)C1Cc2ccccc2CN1 (stereo not drawn)
Result: bucket 2

Query: Next record, please: [2H]N[C@@H](Cc1ccccc1)C(=O)N1C2CC[C@H](COc3ccc4ccccc4c3)N2C(=O)[C@@H]1CCCCN (stereo partly drawn)
Result: bucket 1

Query: Next record, please: N=C(N)NCCCC1C(=O)N2C(COc3ccc4ccccc4c3)CCC2N1CC(N)Cc1ccc(Cl)cc1Cl (stereo not drawn)
Result: bucket 1
